Where do the numbers come from? From ChEMBL document CHEMBL3758154.

System: Plasmodium falciparum
Assay: Antiplasmodial activity against chloroquine-sensitive Plasmodium falciparum 3D7 assessed as inhibition of parasite growth after 72 hrs by DAPI staining-based confocal microscopic analysis
Type: functional, organism-based
Details: 3D7, 72 h
# maps each entry to its pIC50
pIC50 is defined as minus the log10 of a concentration measured in mol/L.

// worked examples, pIC50 included
> print(dat)
                                   compound  data.value
1  C[C@H]1[C@H](OC(=O)CCC(=O)O)O[C@@H]2O[C@@]3(C)CC[C@H]4[C@H](C)CC[C@@H]1[C@@]24OO3 [ARTESUNATE]        9.30
2  CC(C)=CCC/C(C)=C/COc1ccc(/C=C/C(=O)c2ccc(O)cc2O)cc1        5.44
3  COc1ccc(C[C@H](N)C(=O)N[C@H]2[C@@H](O)[C@H](n3cnc4c(N(C)C)ncnc43)O[C@@H]2CO)cc1        7.64
4  COc1cc2c(cc1OC)[C@]1(O)C(=O)c3ccc4c(c3O[C@@H]1CO2)C=CC(C)(C)O4        4.88
5  COc1ccc2nc3cc(Cl)ccc3c(Nc3cc(CN4CCCC4)c(O)c(CN4CCCC4)c3)c2n1        8.44

Query :: Using the record for C[C@H]1[C@@H](O)O[C@@H]2O[C@@]3(C)CC[C@H]4[C@H](C)CC[C@@H]1[C@@]24OO3 , state its measured pIC50.
Result :: 10.00
